Here the recorded melting point is given for each entry.

Answered cases to consult:
CC(C)(C)OC(=O)NCCNC(=O)c1csc(Cl)n1 ... 127 to 129 °C
CS(=O)(=O)c1ccc(C(=O)Nc2ccc(-n3nc(C4CC4)cc3C3CC3)cc2)cc1 ... 171 to 176 °C
COC(=O)c1scc(-c2ccccc2OC)c1-n1cccc1 ... 148 °C
CCCCCc1c(-c2ccc3cc(OC)ccc3c2)n(Cc2ccccc2)c2ccccc12 ... 76 to 80 °C
CCC(=O)Nc1cccc(-c2ccnc3c(C(=O)c4ccccc4)cnn23)c1 ... 172 to 174 °C

# melting point lookup, item COc1c(C)cc(N=C=S)cc1C(=S)N(C)C
74 to 75 °C

Same read-out for Cc1nc(N2CCN(Cc3ccccc3)C2=N)sc1C(=O)NCc1ccc(F)cc1 ?
142 to 144 °C

Same read-out for COc1cccc2c1nc(C(F)F)n2-c1nc(Nc2ccc(F)nc2)nc(N2CCOCC2)n1 ?
261 to 263 °C

Same read-out for CCc1nc2c(C)cc(C)nc2n1Cc1ccc(C(c2ccccc2)C(C(=O)O)C(=O)O)cc1 (stereo unspecified) ?
137 to 142 °C

Same read-out for CCCCNC(=O)N(C)c1ncc(-c2ccncc2)cn1 ?
97 to 99 °C

Same read-out for COc1ccc(-c2cnc(-c3ccc(Cl)cc3)nc2-c2ccc(OC)cc2)cc1 ?
151 to 153 °C

Same read-out for Nc1cccc(-c2nc(-c3cccnc3)no2)c1 ?
161 to 163 °C

====

readout type: melting point

Answered cases to consult:
COc1ccccc1CNc1ccc2cc(Nc3nccc(C)n3)ccc2n1 ... 125 °C
Cc1c(C)c2c(c(C)c1O)C(CBr)C(C)(C)O2 (stereo not given) ... 79 to 80 °C
Cc1cccc(C)c1N(CCC(C)N1C(=O)c2ccccc2C1=O)S(C)(=O)=O (stereo not given) ... 148 to 152 °C

# melting point lookup, item CS(=O)(=O)c1ccc(-c2oncc2CCCO)cc1
125 to 126 °C

Same read-out for CNC(=O)[C@@H]1C[C@@H](OCc2ccccc2)CN1S(=O)(=O)c1ccc(Cl)c(COc2cccc3c(-n4ccnc4)cc(C)nc23)c1Cl ?
100 °C

Same read-out for CC(=O)Nc1ccccc1S(=O)(=O)NCCN1[C@H](C)Cc2ccsc2[C@@H]1C (relative stereo) ?
104 to 109 °C

====

Here the recorded melting point is given for each entry.

COc1ccc2c(c1)Sc1cc(OC)ccc1N2CCC#N ... 111 to 113 °C
CC(C)(C(=O)Nc1ccc(Cl)cc1)/C(F)=C/Br ... 131 to 133 °C
CCC(OCCc1c2c3c(c(OCc4ccc(-c5ccccc5)cn4)ccc3n1Cc1ccc(Cl)cc1)SC(C)C2)C(=O)O (stereo not given) ... 159 to 162 °C

# melting point lookup, item CC1(C(=O)O)CCc2cc(O)c(C(C)(C)C)cc2O1 (stereo not given)
218 to 221 °C

Same read-out for Nc1ccc(C(=O)N2CC3CC(CN(Cc4ccc(Cl)cc4)C3)C2)cc1 ?
213 °C

Same read-out for CS(=O)(=O)c1ccc(/C(=C\C2CCCCC2)C(=O)O)cc1 ?
195 to 197 °C

====

Here the recorded melting point is given for each entry.

Answered cases to consult:
CC(=NOCCCC(=O)O)c1ccc(Cl)cc1 ... 106 to 108 °C
O=c1cc2sc3ccccc3nc-2c2ccccc12 ... 176 to 177 °C
CCOC(=O)/C=C/c1cccc(C(F)(F)F)c1 ... 40 to 41 °C
O=C(Nc1ccc(CCCCn2ccnn2)cc1)c1coc(C=Cc2ccc(C(F)(F)F)cc2)n1 ... 183 to 185 °C
CN1CC(CN2CC(=O)NC2=O)=CC2c3cccc4[nH]cc(c34)CC21 (stereo unspecified) ... 204 to 206 °C

# melting point lookup, item Cn1c([N+](=O)[O-])cnc1C(C)(C)O
102 to 107 °C
